Listed here are molecules together with their documented growth.
Tested on: HOP-92 NSCLC
Experiment: NCI-60 one-dose screen, 48 h (100 = growth as untreated, 0 = no growth, -100 = all killed)
Settings: 10 µM unless noted
Description: Growth inhibition of the HOP-92 human Non-Small Cell Lung tumor cell line is measured as a screen for anti-cancer activity. Cells are grown in 96 well plates and exposed to the test compound for 48 hours. Compounds are tested at a single concentration, which is 10^-5 M for most compounds. The reported endpoint is percent growth (GI% or GIPRCNT), where numbers from 0 - 100% represent growth inhibition, and numbers from -100% - 0 represent cell death. […]
About 83,000 compounds went through this panel and 20% of them were active in at least one assay; those are over-represented in the sample as a whole.
# value in %; strip the unit string

Known growth results, listed for orientation:
CC1(C)N=C(N)N=C(N)N1c1ccc(F)c(C(F)(F)F)c1 : 45.4
NC(N)=N/N=C/c1ccc([N+](=O)[O-])cc1 : 104
CC(=O)N1N=C2N(Cc3ccccc3)C(=O)c3c(sc4c3CCCC4)N2C1c1cn(-c2ccccc2)nc1-c1ccc(Cl)cc1 (stereo not drawn) : 81
CNC(=O)NN : 82.5
COc1ccc(C(=O)NC(=O)Nc2ccc3c(c2)NC(=O)/C3=C\c2[nH]c(C)c(C(=O)O)c2C)c(F)c1 : 63.9

Result for CNCCCOc1c(Br)cc(CCNC(=O)/C(Cc2ccc(OC)c(Br)c2)=N/O)cc1Br , tested on HOP-92 NSCLC, growth: 40.9

Result for O=C(Nc1ccc(-n2cc(-c3ccncc3)c(-c3ccc(O)c(Cl)c3)n2)cc1)c1cc(C(F)(F)F)cc(C(F)(F)F)c1 , tested on HOP-92 NSCLC, growth: 6.71

Result for Nc1nccc(=S)[nH]1 , tested on HOP-92 NSCLC, growth: 110

Result for O=C(Nc1ccc(-n2ccc3c(NC(=O)c4ccccc4)nccc32)cc1)Nc1ccc(Cl)c(Cl)c1 , tested on HOP-92 NSCLC, growth: -6.97

Result for O=C(O)c1cn(C2CC2)c2cc(N3CCN(C(=O)CSc4nc(NS(=O)(=O)c5ccccc5)cc(=O)[nH]4)CC3)c(F)cc2c1=O , tested on HOP-92 NSCLC, growth: 106

Result for COc1ccc(CNc2nc3ccccc3c3c(=O)c4ccccc4sc23)cc1OC , tested on HOP-92 NSCLC, growth: 42.8

----------
Tested on: SF-539 CNS
Assay: NCI-60 one-dose screen, 48 h
Details: 10 µM unless noted
About 83,000 compounds went through this panel and 20% of them were active in at least one assay; those are over-represented in the sample as a whole. Calls of active or inactive are those of the source. Rule for the calls: active = growth percent below 10; inactive = the rest.
Give one outcome, nothing more. List: active, inactive

INPUT: Please share the test call associated with C=C1c2c(Cl)ccc(O)c2C(O)=C2C(=O)[C@]3(O)C(O)=C(C(N)=O)C(=O)[C@@H](N(C)C)[C@@H]3[C@@H](O)[C@H]12 .
OUTPUT: active

INPUT: Please share the test call associated with O=C(Nc1cccc([N+](=O)[O-])c1)Nc1cccc([N+](=O)[O-])c1 .
OUTPUT: inactive

INPUT: Please share the test call associated with N#CC(C#N)=C(C#N)c1c[nH]c2ccccc12 .
OUTPUT: inactive

----------
Test system: SF-295 CNS
Experiment: NCI-60 one-dose screen, 48 h (100 = growth as untreated, 0 = no growth, -100 = all killed)
Settings: 10 µM unless noted
About 83,000 compounds went through this panel and 20% of them were active in at least one assay; those are over-represented in the sample as a whole.
Listed here are compounds together with their documented growth.
# value in %; strip the unit string

CCCC(=O)Oc1ccc(/C(=C(\C)c2ccc(OC)cc2)c2ccc(OCCN3CCCCC3)cc2)cc1 : 61.5
O=C1c2ccccc2C(=O)c2c(NCCN=Cc3c(O)ccc4ccccc34)cccc21 : 65.1
Cc1cn([C@]2(CF)O[C@H](CO)C2C)c(=O)[nH]c1=O (stereo not given in full) : 121
COc1cc(Cn2cc3c(c2)-c2onc(CO)c2CC3)cc(OC)c1OC : 92.1
Nc1nc(Cl)cc(NCc2ccc(CNc3cc(Cl)nc(N)n3)cc2)n1 : 105

Now for another entry.
Looking up CCOc1ccc(NC2=C(Cl)C(=O)c3ccccc3C2=O)cc1 , I see its growth listed as 94.3

----------
Tested on: TK-10 renal
Experiment: NCI-60 one-dose screen, 48 h
Details: 10 µM unless noted
This is part of a sample that, as a whole, favours compounds with a hit. Of some 83,000 tested, about 20% had one in any assay. The source made the active and inactive calls. Rule for the calls: active = growth percent below 10; inactive = the rest.
Give one outcome, nothing more. List: active, inactive

O=C(Nc1ccccc1F)Nc1ccccc1Cl : inactive
O=c1[nH]ccc2nc(N3CCC(O)CC3)nc(Nc3cccc(C(F)(F)F)c3)c12 : inactive
Cc1cccc[n+]1CCC[n+]1ccccc1C : inactive
C=C1C(=O)O[C@H]2[C@H]1CC/C(COC(=O)c1ccc(Cl)nc1)=C\CC[C@@]1(C)O[C@@H]21 : active
CC(Cc1cccc(C(F)(F)F)c1)NCCOC(=O)c1ccccc1 (configuration not stated) : inactive

INPUT: Please share the test call associated with COc1ccccc1C(OC(C)=O)OC(C)=O .
OUTPUT: inactive

INPUT: Please share the test call associated with c1ccc([Se]CCCN2CCN(CCC[Se]c3ccccc3)CC2)cc1 .
OUTPUT: inactive

----------
Test system: SF-268 CNS
Experiment: NCI-60 one-dose screen, 48 h (100 = growth as untreated, 0 = no growth, -100 = all killed)
Details: 10 µM unless noted
This is part of a sample that, as a whole, favours compounds with a hit. Of some 83,000 tested, about 20% had one in any assay.
Listed here are compounds together with their documented growth.
# value in %; strip the unit string

Cc1cc(SCc2ccc(Cl)cc2Cl)nc(SCc2ccc(Cl)cc2Cl)n1 : 102

Looking up Cc1ccc2c(c1)Nc1ccc(C)cc1C2(C)C , I see its growth listed as 105

Looking up NC(N)=N/N=C/c1ccc([N+](=O)[O-])cc1 , I see its growth listed as 103

Looking up CS(=O)(=O)Nc1cccc(-c2ccc3ncnc(Nc4cncc(Cl)c4)c3c2)c1 , I see its growth listed as 42.4

Looking up CCn1cc(C(=O)O)c(=O)c2cc(F)c(N3CCN(CC(=O)Nc4ccc(C(C)=O)cc4)CC3)cc21 , I see its growth listed as 102

----------
Test system: HCC-2998 colon
Assay: NCI-60 one-dose screen, 48 h (100 = growth as untreated, 0 = no growth, -100 = all killed)
Settings: 10 µM unless noted
Experimental: Growth inhibition of the HCC-2998 human tumor cell line is measured as a screen for anti-cancer activity. Cells are grown in 96 well plates and exposed to the test compound for 48 hours. Compounds are tested at a single concentration, which is 10^-5 M for most compounds. The reported endpoint is percent growth (GI% or GIPRCNT), where numbers from 0 - 100% represent growth inhibition, and numbers from -100% - 0 represent cell death. For example, a value of 40 represents 60% growth inhibition. […]
This is part of a sample that, as a whole, favours compounds with a hit. Of some 83,000 tested, about 20% had one in any assay.
Listed here are compounds together with their documented growth.
# value in %; strip the unit string

CCCc1nn2c(CCC(=O)c3nc4ccc([N+](=O)[O-])cc4[nH]3)nnc2s1 : 100
C=C1C(=O)O[C@H]2[C@H]1CC/C(COC(=O)n1ccnc1C)=C\CC[C@@]1(C)O[C@@H]21 : 103
O=C(Nc1ccc(-n2cc(-c3ccncc3)c(-c3ccc(O)c(Cl)c3)n2)cc1)c1cc(C(F)(F)F)cc(C(F)(F)F)c1 : 83.6
COc1ccc(Cl)cc1NC(=O)c1cc2c(n1C)-c1nc(NC(=O)C(C)(C)C)sc1CC2 : 118
Nc1ccc(S(=O)(=O)Nc2cc(I)cc(I)c2)cc1 : 105

Now for another entry.
Looking up O=C1OC(c2ccc(-c3ccccc3)cc2)=C/C1=C/C=C/c1ccccc1 , I see its growth listed as 106

----------
Tested on: KM12 colon
Experiment: NCI-60 one-dose screen, 48 h (100 = growth as untreated, 0 = no growth, -100 = all killed)
Conditions: 10 µM unless noted
The panel holds about 83,000 compounds, 20% with a hit somewhere; the sample as a whole holds those more often.
Listed here are compounds together with their documented growth.
# value in %; strip the unit string

COc1ccccc1N1CCN(CC(O)COc2c(Br)c(Br)c(Br)c3c2OC(C)(C)C3)CC1 (stereo not given) : 35.7

Looking up C=C1C(=O)O[C@H]2[C@H]1CC/C(COC(=O)c1ccc(Br)cc1)=C\CC[C@@]1(C)O[C@@H]21 , I see its growth listed as 56.2

Looking up COc1ccc(Cl)cc1NC(=O)c1cc2c([nH]1)-c1nc(N)sc1CCC2 , I see its growth listed as 97.3
